Cited source: patent US4292321A

Tgt: dopamine receptor (Bos taurus)
Construct: from tissue
Sequence (P20288 whole entry): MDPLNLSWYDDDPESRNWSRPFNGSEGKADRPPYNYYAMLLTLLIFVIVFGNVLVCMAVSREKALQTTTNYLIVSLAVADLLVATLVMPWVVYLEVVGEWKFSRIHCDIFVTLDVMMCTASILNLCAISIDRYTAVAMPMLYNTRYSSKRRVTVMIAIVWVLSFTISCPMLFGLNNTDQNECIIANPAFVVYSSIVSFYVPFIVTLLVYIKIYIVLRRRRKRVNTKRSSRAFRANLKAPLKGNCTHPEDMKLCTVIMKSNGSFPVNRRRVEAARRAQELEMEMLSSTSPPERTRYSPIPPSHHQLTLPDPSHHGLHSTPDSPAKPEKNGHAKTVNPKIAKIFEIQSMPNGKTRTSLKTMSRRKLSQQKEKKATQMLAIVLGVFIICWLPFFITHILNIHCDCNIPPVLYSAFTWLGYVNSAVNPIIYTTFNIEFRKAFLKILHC
Method: 3H-haloperidol receptor binding assay (HRBA)
Assay Context: read-out: inhibition of 3H-haloperidol binding
Where a name gives a salt, the structure may show the parent alone.
Parameter Measured: inhibition at 0.01 µM

Quote inhibition at 0.01 µM with test system dopamine receptor (Bos taurus) for OC1(c2ccc(F)cc2)CCN(CCCN(c2ccc(F)cc2)c2ccc(F)cc2)CC1 [Example 19, hydrochloride]
~82%

Please respond with reported inhibition at 0.01 µM (system dopamine receptor (Bos taurus)) for OCCN1CCN(CCCN(c2ccc(F)cc2)c2ccc(F)cc2)CC1 [Example 36, dihydrochloride] .
~21%

Please report the measured inhibition at 0.01 µM for c1ccc(OC2CCN(CCCN(c3ccccc3)c3ccccc3)CC2)cc1 [Example 22] tested on dopamine receptor (Bos taurus).
~7%

Give inhibition at 0.01 µM for O=c1[nH]c2ccccc2n1C1CCN(CCCN(c2ccccc2)c2ccc([N+](=O)[O-])cc2)CC1 [Example 10, hydrochloride] tested on dopamine receptor (Bos taurus).
~17%
